A collection of compounds and their measured Mouse Plasma Prodrug (%)
- Assay type: in vitro ADME, mouse
- applied conditions: prodrug remaining, 5 μM, 37° C., 15 min

{"columns": ["compound", "Mouse Plasma Prodrug (%)"],
 "data": [
  ["COc1ccc([C@@]23CCC(OP4(=O)OCC(C)(C)CO4)=C[C@@H]2N(C)CC3)cc1OC [Compound 323]", ">99%"],
  ["CCN(C)C(=O)OC1=C[C@@H]2N(C)CC[C@]2(c2ccc(OC)c(OC)c2)CC1 [Compound 326]", ">99%"],
  ["COc1ccc([C@@]23CCC(OC(=O)N(C)C)=C[C@@H]2N(C)CC3)cc1OC [Compound 324]", "97.4%"],
  ["COc1ccc([C@@]23CCC(OP(=O)(OC(C)C)OC(C)C)=C[C@@H]2N(C)CC3)cc1OC [Compound 321]", "77.3%"],
  ["COc1ccc([C@@]23CCC(OC(=O)OC(C)(C)C)=C[C@@H]2N(C)CC3)cc1OC [Compound 358]", "14.8%"],
  ["COc1ccc([C@@]23CCC(OC(=O)N4CCN(C)CC4)=C[C@@H]2N(C)CC3)cc1OC [Compound 327]", ">99%"],
  ["COc1ccc([C@@]23CCC(OP(=O)(O)O)=C[C@@H]2N(C)CC3)cc1OC [Compound 359]", ">99%"],
  ["COc1ccc([C@@]23CCC(OP(=O)(Oc4ccccc4)Oc4ccccc4)=C[C@@H]2N(C)CC3)cc1OC [Compound 320]", "58.5%"]
]}
